Listed sequences paired with reported soluble fraction (log2)
experiment: soluble fraction after stress (log2 fold change); higher = more stays soluble; pooled small domains, quantitative proteomics; conditions: stress: 75 degC;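 note: 20 min heating vs room temperature control held 20 min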

Examples with answers:
query_sequence: HMGPAYQTQRQEAFAALSEIAAKNPQLMQVAGDLVFRAADFPMADELADRLAKTLPPQLQDKKGQP
soluble fraction (log2): -0.455
--
query_sequence: HMPKAKASARNDTRTRLLTIGTEVLSQKGFASTGVEEILSVAGVPKGAFYYYFESKAAFGLAVIENYE
soluble fraction (log2): 0.259
--
query_sequence: HMEDVTLSLVVGEDLDGERLDVFLTWKLDRTRSQVQALIRDGKVRLEQGQRARPSMVVRSGMGISVSLEPR
soluble fraction (log2): -2.15
--
query_sequence: HMGIRDIHITVNGESLKLSKKQNYIFVDIFDFYPFDLSILGGSKLITTINGEQAEFTSPLKDGDVVELYWK
soluble fraction (log2): -2.25
--
query_sequence: HMNADRIVGQTAKVIHPITPDEKGRVMVDNLDWAAAAQNRGESFEVGEEVSIVRIEGVTVYVQK
soluble fraction (log2): -0.234
--
query_sequence: HMRQSKMREAILAAVSAQKLEISDLHVWRIGEQRYAAIIGLATTQAESVSALRDSLAQMDKLVHLTIDQ
soluble fraction (log2): -2.21
--
query_sequence: HMPPPVERAIRKLGHDLSLARRRRRISQDSMAQRMGASVSTVRRIEKGDPRIPIHFIARAMMILGDLKAL
soluble fraction (log2): 0.0447

We now examine a further sequence.
Per the record, HMSPTEQEKIGLFIKKLREEKNLTQEAFASLLKTSQSAVARIESGNQNITIEQLMKIGEVLNHNIVSI has soluble fraction (log2) of -0.212

---

experiment: soluble fraction after stress (log2 fold change); higher = more stays soluble; pooled small domains, quantitative proteomics; details: stress: 75 degC
Listed sequences paired with reported soluble fraction (log2)
When you answer, write just the number.

Examples with answers:
query_sequence: HMGPVDFYQMFISELQHLAEKPVTVDALIESTQLHKSQLTEWLKRAVDDGVVKKLNRPARFQVKNK
soluble fraction (log2): 0.0567
--
query_sequence: HMGNLIIFYDAQTGSAPLLKAVKTSGATLVYEYKNLHGIAIRPSSKTSIEDAIAYFKKVNGVLSVE
soluble fraction (log2): -3.77

Per the record, HMESPVNTLPEDQRAWYKALPPELSTKTAVEAGAGVGVSERTVKRLLSNQTFFINLQRGNYRKRH has soluble fraction (log2) of -0.119

Per the record, HMANLAQITKTNAVALALKDVGAYNSEDLMKFIDLDKVVLGEDGKPQLEDTINSLKESSPYLFQ has soluble fraction (log2) of 0.134

Per the record, HMTRYQHLAMLLEKRIAQGLYRNGERLPSVRSLSAEHGVSISTVQQAYYLLEQKQLIIPQSRSGYYVAPH has soluble fraction (log2) of -4.46

Per the record, HMSLSNMIGKNIQWTHVTKTKDAEGNPKTNSETFAGNVRGVKVLNGKPMVVAQDAKGKLHEVEVSEIEAIA has soluble fraction (log2) of 0.0953

Per the record, HMGAGLDDLVRKSLHNAGLKADDNVVSWISGNLGSDRMVSRMELEKLVLFVAGQSEITLEDAQAVIGD has soluble fraction (log2) of -0.524

Per the record, HMYVQDPVDRLVLESALRLLREQEREIIFLHLVAGLKHREIAGLLHLPLSTVLSGYRRALTKMKSYLEE has soluble fraction (log2) of -0.0135

Per the record, HMDAPIIRLLNSLVQRAVTTTASDIHIEPFEGETKVRMRIDGVIIDYVTLQRALHQPLIARIKIMSNLD has soluble fraction (log2) of -0.15

Per the record, HMQKPDIEVDFAEGDMVVVTGGAWKDTAGVITGINMQKQTVTINVELFGRETPVEISFTEIKKA has soluble fraction (log2) of -0.117

Per the record, HMLPELIVTTKKGVTVTVTNGVITYSATSNGKATFTVPNYGKWTVSATINGTVISKVVDVTEAKQIPVLLG has soluble fraction (log2) of -1.07

Per the record, HMVKVSVYPNPAVDRITISGEVKAYAVYDATGKVVMKDTDYRGGAIGVSHLPAGIYIVRTDAGAVTVNK has soluble fraction (log2) of -0.595

Per the record, HMGGVTVQNRETHVNSTVNVRSEQTTESERVALAYQGDAITQIESYENGWSKVEYKGLSGYVMTEYL has soluble fraction (log2) of 0.275

Per the record, HMPPNHADLKSSGLKATLPRLKILEIFQNSQVRHLSAEDVYKLLLAENLDVGLATVYRVLTQFEQAGL has soluble fraction (log2) of -0.522

Per the record, HMTVTLTTLRNGSTGAQVKTLQRLLSAMDYYNGETDGKFGISTAAAVKAFQRAKRLTVDGIVGKNTWTALL has soluble fraction (log2) of -1.2

Per the record, HMKVYPIMEAIANNNIELVKLLLEYHADLNIKDSNGNTPLALAKETGAKEVEDLLLQWMKQHT has soluble fraction (log2) of -1.06

Per the record, HMGYDLLFQQALGFHEQGRLNEAENIYRQILETAPNNPDILNLLGLIAQQKGLHAQAVDYFYQAIRL has soluble fraction (log2) of -1.89

Per the record, HMEEKEIGQTLSVKIRENVLSKLDMTRDLEDEEVKHIIEHEIWLAAKKHYISLEERNSIKRGIFNSL has soluble fraction (log2) of -0.895

Per the record, HMRDISTDTSAWTFQDIKRYYDPQDLLTEKQVGQALSLIKGRNLNPLLNEVYIVAYKKKNGGAEFSLIV has soluble fraction (log2) of -0.224

Per the record, HMKQNRNLPVQIINNGKIIESVMTEFNLDIDWVYSEAKRLGYKNIKDIFYAGINRDGQFFIVPLF has soluble fraction (log2) of -3.06

---

test: soluble fraction after stress (log2 fold change); higher = more stays soluble; pooled small domains, quantitative proteomics; conditions: stress: 75 degC
Listed sequences paired with reported soluble fraction (log2)
When you answer, write just the number.

Examples with answers:
query_sequence: HMAGWIPVEERLPDDLTNPITRDAYVYPVTVDLGDVTDIRYYSFWRGHWYNQGPETMDDLVIAWMLLPEPY
value_observed: -0.279

query_sequence: HMDVQPHIYLRKLDQFWPADLHSLILYTLDGRRLWSADSGNIPALPHRASSLVILEATWDNGQRTRRKQFL
value_observed: -1.75

query_sequence: HMGPELGENEKLIFDIIKKESKMELGILKAQVDLSNKKWDKALKGLATHGLTKVNKTDDGLFIELI
value_observed: -0.555

We now examine a further sequence.
Per the record, HMKTLGMDKGVNIALNDAGLRAEDVSNLSAHYDTEDGVPVYEIKFTAGGFSYEYQIKASDGTIIEADRDAA has soluble fraction (log2) of -0.00738

---

assay: soluble fraction after stress (log2 fold change); higher = more stays soluble; pooled small domains, quantitative proteomics; details: stress: 75 degC
quantity_name: soluble fraction (log2)
When you answer, write just the number.

query_sequence: HMQDLPPIHLSRGMTDYTLVRSRRRTLSMELKRDGTVVVHAPLRLGVEKIDAFVAAHEAWLARARTRQAER
value_observed: -2.59

Per the record, HMDATIGGFKITDSAIYSGVKNNVNAGVRGTYIDKDGQIAFGDSNSYLKYYKDTDGKWKLEVSASSVKF has soluble fraction (log2) of 0.454

Per the record, HMKTIQVGSTVRVNQGAKTYSGGGLASFVYKRNHKVSQLQGDRAVITYEGTVVAAVHVSDLSLIH has soluble fraction (log2) of -0.192

Per the record, HMIDEKVQAADKSIEIGNLSPLKGLVTDDEMHELEKLFEKVMALKDFEVNDVGAGRKYIEAYVSFFKFAEG has soluble fraction (log2) of -0.418

---

assay: soluble fraction after stress (log2 fold change); higher = more stays soluble; pooled small domains, quantitative proteomics; details: stress: 75 degC
quantity_name: soluble fraction (log2)

query_sequence: HMTESIKRDEAIRLNNGRIYTLDAAKIGTNEYEVMLFNPRTGEEIDSAKTSTEADAILQFDRLRRMYHR
soluble fraction (log2): 0.0129

query_sequence: HMLLQTRQRHEALAALGYFKGDVAAAWGPASEEALRAAQAAFGITVDGKWGPQTEDAIQGALQV
soluble fraction (log2): -0.357

query_sequence: HMNFSRQREIIYEQVRNFPVHPTAEEVYRALKNDNPNLSLGTVYRNLNQLSEAGMLLKIPIADGSDRFDGR
soluble fraction (log2): -0.655

Per the record, HMYKNLRAFRESLGMTQKDFAASLSIGLSTYNGYEVGAREPKSDFWIAVARKYGVTIDYLMGFSDDPHK has soluble fraction (log2) of -1.46

Per the record, HMQDGTILPGQKTAIRSLATSGGYDSQDLDTYLATTYGKSIDGLTRTEGADVIKAFQAGTVAK has soluble fraction (log2) of 0.436

Per the record, HMSNLLKNILDVLEKEGPLKARKIALLLDSTRTTITHTTINSELYKALDLEGLTKNEQNIWSYVT has soluble fraction (log2) of 0.145

Per the record, HMEANAYFDAYPDVAAEWARLSGSDEGKATLSAIGVTTPQQFAQYHYTTFGSKENRNAPVGYTP has soluble fraction (log2) of 0.072

Per the record, HMVQPSAAVRAHPVGAFVEQRQGLSDDQILALQKKWNEGIYARIQGTRWFLFSKDTPAVTSLLLVPDLP has soluble fraction (log2) of -0.47

Per the record, HMEHVVFEVTESGELENNTAVKHVLNSFNNKSLNLAIDDFGTGYSNLRYIRDMMFGIIKIDRLFIKDINES has soluble fraction (log2) of 0.324

Per the record, HMHGTIHSAAYGGDIEAVKKFLAAGADVNANGGGRTPLDLAIQVKNTEIADLLRKHGGKTGDELKA has soluble fraction (log2) of 0.547

Per the record, HMSEQGVITAKFASIVGNQNIQLVMFPDSVYLKGQVSSEEEKKRAETVASSLIQDRKIVNLIEFE has soluble fraction (log2) of -0.075

Per the record, HMGAVDIATARQLISEIGLPIMLKAEGGGGGRGIFAIHNEAELEDAFFKASTMAQASFGNPRLFVEKF has soluble fraction (log2) of -0.441

Per the record, HMRRSKVMLESILDEIPQMGQARRAALLEQFGSVAALRKASLAEIAMTPGIGEKIAVIIFEYLQKSSH has soluble fraction (log2) of -1.69

Per the record, HMVQMNMLELQEEMQRDRSWIIKHLFQDEYFRRKIAKFSQFPINDSGKYLFHRKSMLKFLNDYAEEIVER has soluble fraction (log2) of -2.88

Per the record, HMKGTSIELIVPQDIAGLRLDQVLAKLLPQWSRSRLQSWINEKHITVNGQTTTAKQKLWGNETIQIIPPI has soluble fraction (log2) of -1.45

Per the record, HMNSVSARRSAAITAISTGRIHSQEDLVQALKKAGYPVTQATASRDIEEIGAVRIRNQKGEMVYAIS has soluble fraction (log2) of 0.208

Per the record, HMGDFVIVPDLIGKTIEEFDSELNELNLKYIISDSGNYNPDFKINSVLDQLPNANSKVKGGRKIYITLNAS has soluble fraction (log2) of -1.05
